Recorded values, source patent US20250333501A1.

Would you kindly list FACS fluorescence for each of these binders?
Molecular target: T1, CLDN6 endogenously expressed by human cancer cell lines (ARK2, OVCA429) (human, UniProt P56747 1-220)
T1 construct: Untagged endogenous protein; also called Endogenous CLDN6+
T1 sequence: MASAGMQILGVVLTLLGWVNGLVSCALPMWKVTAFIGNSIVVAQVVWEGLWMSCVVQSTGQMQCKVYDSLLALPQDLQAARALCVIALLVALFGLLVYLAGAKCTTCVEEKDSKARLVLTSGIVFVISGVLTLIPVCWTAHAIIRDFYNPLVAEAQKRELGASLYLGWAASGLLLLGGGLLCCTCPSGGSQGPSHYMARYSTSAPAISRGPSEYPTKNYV
Test: FACS, 1.5 µg Ab, OVCA429 cells
Note: the reply should be a number with no unit written.

[Q] Which FACS fluorescence is reported for this binder? AB1-5 (antibody, V domains shown, also called Humanized AB 1-5) VH: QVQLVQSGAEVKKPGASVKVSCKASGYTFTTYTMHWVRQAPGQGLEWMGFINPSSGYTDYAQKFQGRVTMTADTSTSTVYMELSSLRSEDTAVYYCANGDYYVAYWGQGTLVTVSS VL: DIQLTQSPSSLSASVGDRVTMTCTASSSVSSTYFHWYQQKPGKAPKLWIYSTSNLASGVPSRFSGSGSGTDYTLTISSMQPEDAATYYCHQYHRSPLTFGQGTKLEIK
[A] 54300

[Q] Can you check AB3-3 (antibody, V domains shown, also called Humanized AB 3-3) VH: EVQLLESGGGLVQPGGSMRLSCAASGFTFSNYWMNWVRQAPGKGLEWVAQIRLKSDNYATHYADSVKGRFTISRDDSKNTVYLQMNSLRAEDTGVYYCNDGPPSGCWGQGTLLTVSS VL: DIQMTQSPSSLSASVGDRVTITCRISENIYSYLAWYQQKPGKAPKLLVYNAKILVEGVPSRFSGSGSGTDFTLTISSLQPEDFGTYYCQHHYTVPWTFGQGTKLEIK next?
[A] 88700
